Readings of inhibition at 10 µM for the listed molecules
# Test system: NCI-H1581
# procedure_summary: Antiproliferative activity against human NCI-H1581 cells assessed as inhibition of cell growth at 10 uM incubated for 48 hrs by MTT assay relative to control
# Assay type: functional
# condition_context: NCI-H1581, 48 h
The reply should be a number in %, with the unit left off.

Use these answered entries as a reference point.
CCN1CCN(c2ccc(Nc3cc(N(C)C(=O)Nc4c(Cl)c(OC)cc(OC)c4Cl)ncn3)cc2)CC1 :: 83.7
COc1cc(NC(=O)Nc2cc(Nc3cc(OC)cc(C(F)(F)F)c3)ncn2)cc(OC)c1 :: 50.7
COc1cc(Nc2cc(NC(=O)Nc3c(Cl)cccc3Cl)ncn2)cc(OC)c1 :: 68

Ask | So what does the record say about inhibition at 10 µM for COc1cc(NC(=O)Nc2cc(Nc3ccc(OC)c(I)c3)ncn2)cc(OC)c1 ?
Reply | 43

Ask | So what does the record say about inhibition at 10 µM for COc1cc(Nc2cc(NC(=O)Nc3c(Cl)cccc3Cl)ncn2)cc(C(F)(F)F)c1 ?
Reply | 32.3

Values were extracted from ChEMBL document CHEMBL4414679.
